# Assay Method Text: Binding affinity to Bacillus subtilis glyQS T box riboswitch mRNA assessed as inhibition of tRNAgly-induced glyQS transcription readthrough after 3 hrs by fluorescence assay
Observable: pIC50
Give bare numbers, as −log10 of the molar value.

QUERY: State the recorded pIC50 for this entry: CN(CCCc1ccccc1)Cc1cn(CC(O)COC(=O)NCc2ccccc2)nn1 (stereo unspecified)
RESULT: 5.10

Origin of values: ChEMBL document CHEMBL3603797
